Can you tell me melting point for the items I'm about to list?

-- ask For N#CC(CCN1CCC(C(=O)ON2C(=O)c3ccccc3C2=O)(c2ccccc2)CC1)(c1ccccc1)c1ccccc1 , what is its reported melting point?
-- reply 156 to 158 °C

-- ask Tell me the measured melting point of CCOC(=O)C1=C(COCc2nnnn2CCN2CCN(C(=O)NC)CC2)NC(C)=C(C(=O)OC)C1c1cccc(Cl)c1Cl (stereo not given) , please.
-- reply 95 to 96 °C

-- ask Reported melting point for COc1ccc(CN2C(=O)[C@H](N3C(=O)c4ccccc4C3=O)[C@@H]2C(=O)OCc2ccccc2)c(OC)c1 (relative stereo) : what is it?
-- reply 198 to 200 °C

-- ask Any idea what melting point was measured for [N-]=[N+]=NCCc1ccc(C(=O)O)cc1 ?
-- reply 130 to 131 °C

-- ask Quick one: melting point of CC(=O)Nc1c(C(N)=O)nnn1Cc1ccccc1Cl ?
-- reply 140 to 142 °C

-- ask Entry N#Cc1ccccc1-c1c(O)ccc2c3c(oc12)-c1cc(O)ccc1CC3 has what melting point?
-- reply 277 to 279 °C

-- ask Given the compound CC12CCC(O)CC1CCC1C2CCC2(C)C(C=NNC(=N)N)CCC12O (stereo not given) , what is its reported melting point?
-- reply 163 to 165 °C

-- ask What value of melting point has been reported for the following compound? CCOC(=O)c1cn(-c2cc(OC)c(F)cc2F)c2c(C)c(N)c(F)cc2c1=O
-- reply 232 to 235 °C

-- ask Which value of melting point has been reported for CCC1(CCO)OCCc2c1[nH]c1c(C)cccc21 (stereo not given) in the records?
-- reply 68 °C

-- ask Would you kindly share the measured melting point for CCOC(=NC(=O)OC)NC(=O)Nc1cc(C(=O)OC)c(Cl)cc1F ?
-- reply 105 to 107 °C

Lab note: each compound below needs its melting point filled in.
1. CCOC(=O)C(N)=Cc1ccc(OCC(O)CNC(C)(C)C)cc1 (stereo not given)
2. O=C(C(=O)c1ccccc1Br)c1ccc(F)cc1
3. Cc1oc(-c2ccccc2)nc1COc1ccc(CON=C(CCC(=O)O)c2ccco2)cc1
4. CCCCCCNC(=O)Oc1ccc2ncccc2c1

-- reply
1. 99 to 100 °C
2. 72 to 78 °C
3. 124 to 125 °C
4. 89 °C
